# key: entry, value: pKi
assayed system: JAK-3 (Homo sapiens)
Sequence (P52333 whole entry): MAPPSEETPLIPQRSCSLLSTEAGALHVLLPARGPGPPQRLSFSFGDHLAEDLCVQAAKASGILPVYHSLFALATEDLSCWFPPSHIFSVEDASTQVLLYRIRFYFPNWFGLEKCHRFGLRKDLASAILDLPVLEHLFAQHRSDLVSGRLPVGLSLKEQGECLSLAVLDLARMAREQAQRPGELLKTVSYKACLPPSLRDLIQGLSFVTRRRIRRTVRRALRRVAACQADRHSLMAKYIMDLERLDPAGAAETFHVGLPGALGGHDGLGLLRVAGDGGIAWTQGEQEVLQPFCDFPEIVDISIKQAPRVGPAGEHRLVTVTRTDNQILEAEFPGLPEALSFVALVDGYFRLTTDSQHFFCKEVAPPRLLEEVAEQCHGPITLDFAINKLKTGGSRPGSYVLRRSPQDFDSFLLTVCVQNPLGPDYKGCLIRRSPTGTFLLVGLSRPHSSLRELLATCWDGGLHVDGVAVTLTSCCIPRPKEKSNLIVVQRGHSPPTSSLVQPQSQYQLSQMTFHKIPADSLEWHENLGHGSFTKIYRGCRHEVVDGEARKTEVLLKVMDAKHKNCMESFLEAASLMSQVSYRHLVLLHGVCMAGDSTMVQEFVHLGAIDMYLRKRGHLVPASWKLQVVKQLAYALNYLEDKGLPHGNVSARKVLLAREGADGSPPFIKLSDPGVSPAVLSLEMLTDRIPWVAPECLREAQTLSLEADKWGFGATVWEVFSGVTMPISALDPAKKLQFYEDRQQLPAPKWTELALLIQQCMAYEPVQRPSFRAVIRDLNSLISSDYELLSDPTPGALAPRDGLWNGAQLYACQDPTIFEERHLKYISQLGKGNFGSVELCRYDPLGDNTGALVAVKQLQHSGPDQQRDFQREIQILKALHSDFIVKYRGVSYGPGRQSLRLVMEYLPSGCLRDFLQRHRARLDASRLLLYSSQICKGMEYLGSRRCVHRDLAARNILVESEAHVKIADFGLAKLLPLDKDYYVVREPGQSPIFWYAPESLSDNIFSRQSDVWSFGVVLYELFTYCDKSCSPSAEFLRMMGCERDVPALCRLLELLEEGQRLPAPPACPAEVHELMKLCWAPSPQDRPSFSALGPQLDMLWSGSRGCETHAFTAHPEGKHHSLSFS
assay comment: JAK-3 inhibition assay
Assay type: biochemical
pKi: −log10 of the molar value.
quantity: pKi

[
  {
    "molecule": "O=[N+]([O-])c1ccc(C2Nc3ccccc3-c3ccnc4[nH]cc2c34)cc1 (stereo not drawn) [Compound 86]",
    "quantity": "pKi",
    "endpoint result": "< 5.60"
  },
  {
    "molecule": "Fc1cccc(F)c1C1Nc2ccccc2-c2c(Cl)cnc3[nH]cc1c23 (stereo not drawn) [Compound 52]",
    "quantity": "pKi",
    "endpoint result": "5.60 to 6.60"
  },
  {
    "molecule": "Fc1ccc(C2Nc3ccccc3-c3ccnc4[nH]cc2c34)c(F)c1F (stereo not drawn) [Compound 29]",
    "quantity": "pKi",
    "endpoint result": "5.60 to 6.60"
  }
]
